IC50 by entry:
biological target: HER2 YVMA (Homo sapiens, UniProt P04626, INS775YVMA); experiment: BaF3 cell proliferation assay (CellTiterGlo), HER2 YVMA; details: Table A; BaF3 cells, 3 days
Sequence (P04626 with tags, fused parts or gaps INS775YVMA): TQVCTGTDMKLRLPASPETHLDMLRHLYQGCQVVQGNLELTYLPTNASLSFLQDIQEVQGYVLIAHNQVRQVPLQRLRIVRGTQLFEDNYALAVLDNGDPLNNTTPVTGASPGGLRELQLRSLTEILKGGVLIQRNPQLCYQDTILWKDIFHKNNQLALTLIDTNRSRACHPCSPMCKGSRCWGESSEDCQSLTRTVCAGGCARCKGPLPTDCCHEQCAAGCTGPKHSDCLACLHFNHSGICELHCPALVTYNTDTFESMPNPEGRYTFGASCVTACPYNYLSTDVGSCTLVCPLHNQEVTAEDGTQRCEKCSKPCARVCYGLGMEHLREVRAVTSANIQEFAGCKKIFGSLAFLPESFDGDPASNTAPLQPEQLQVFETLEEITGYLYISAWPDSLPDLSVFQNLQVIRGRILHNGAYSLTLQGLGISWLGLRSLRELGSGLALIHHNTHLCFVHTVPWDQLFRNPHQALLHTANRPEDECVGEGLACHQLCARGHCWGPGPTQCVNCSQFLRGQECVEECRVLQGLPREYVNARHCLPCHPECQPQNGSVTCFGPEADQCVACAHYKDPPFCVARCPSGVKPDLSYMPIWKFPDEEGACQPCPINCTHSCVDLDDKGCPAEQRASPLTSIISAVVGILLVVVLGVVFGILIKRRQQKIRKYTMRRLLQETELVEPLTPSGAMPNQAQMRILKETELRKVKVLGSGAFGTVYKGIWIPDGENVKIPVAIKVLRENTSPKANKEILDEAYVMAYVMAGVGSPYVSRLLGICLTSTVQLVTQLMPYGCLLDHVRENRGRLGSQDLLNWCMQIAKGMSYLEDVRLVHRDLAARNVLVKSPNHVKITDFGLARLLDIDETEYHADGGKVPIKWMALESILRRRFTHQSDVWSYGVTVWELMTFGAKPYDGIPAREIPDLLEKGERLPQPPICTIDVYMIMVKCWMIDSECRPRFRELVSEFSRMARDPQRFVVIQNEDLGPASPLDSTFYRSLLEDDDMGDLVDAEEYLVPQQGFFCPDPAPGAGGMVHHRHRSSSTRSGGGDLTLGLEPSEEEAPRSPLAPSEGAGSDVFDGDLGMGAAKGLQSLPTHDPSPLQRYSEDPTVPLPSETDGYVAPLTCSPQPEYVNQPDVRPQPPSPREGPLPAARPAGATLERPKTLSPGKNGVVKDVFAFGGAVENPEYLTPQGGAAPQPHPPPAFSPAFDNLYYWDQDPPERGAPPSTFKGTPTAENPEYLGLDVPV

Below, 5 compounds whose answers are already recorded.
C=CC(=O)Nc1cc2c(Nc3cc(Cl)ccc3F)ncnc2cc1C#C[C@@H]1[C@H]2CN(C)C[C@@H]12 ... > 500 nM
CC(C)/C=C/C(=O)Nc1cc2c(Nc3cccc(Cl)c3F)ncnc2cc1C#C[C@@]1(C)CCN(C)C1 ... > 500 nM
C=CC(=O)Nc1cc2c(Nc3ccc(OCc4ccccn4)c(Cl)c3)ncnc2cc1C#C[C@H]1[C@H]2CN(C)C[C@@H]12 ... > 500 nM
C=CC(=O)Nc1cc2c(Nc3ccc(OCc4ccccn4)c(Cl)c3)ncnc2cc1C#CC1(C)CCN(C)CC1 ... 50 to 100 nM
C=CC(=O)Nc1cc2c(Nc3ccc(Cl)c(Cl)c3F)ncnc2cc1C#C[C@@]12C[C@@H]1CN(C)C2 ... ≤ 50 nM

Ask: Which IC50 is listed for `C=CC(=O)Nc1cc2c(Nc3ccc(Oc4ccccc4)cc3)ncnc2cc1C#C[C@@]12C[C@@H]1CN(C)C2` ?
Result: 100 to 500 nM

Ask: Name the reported IC50 value associated with the compound `C=CC(=O)Nc1cc2c(Nc3cccc(Cl)c3F)ncnc2cc1C#C[C@]1(F)CCN(C)C1`
Result: > 500 nM

Ask: // IC50 lookup, key: `C/C=C/C(=O)Nc1cc2c(Nc3cccc(Cl)c3F)ncnc2cc1C#C[C@@]1(C)CCN(C)C1`
Result: > 500 nM

Ask: Fill in the blank: the reported IC50 of `C=CC(=O)Nc1cc2c(Nc3cccc(Cl)c3F)ncnc2cc1C#C[C@]1(OC)CCN(C)C1` is ____.
Result: ≤ 50 nM

Ask: Param item = C=CC(=O)Nc1cc2c(Nc3cccc(Cl)c3F)ncnc2cc1C#CC1(OC)CCN(C)C1 (centres unmarked) ; retrieve measured IC50.
Result: 100 to 500 nM

Ask: Find the recorded IC50 belonging to `CN1CC[C@](C)(C#Cc2cc3ncnc(Nc4cccc(Cl)c4F)c3cc2NC(=O)CC#N)C1` and report it.
Result: > 500 nM

Ask: For `C=CC(=O)Nc1cc2c(Nc3cccc(Cl)c3F)ncnc2cc1C#C[C@@]1(C)CCCN1C` , what is its reported IC50?
Result: > 500 nM

Ask: Which IC50 is reported for this compound? C=CC(=O)Nc1cc2c(Nc3cccc(Cl)c3F)ncnc2cc1C#CC1(C)CCN(C2COC2)C1 (centres unmarked)
Result: > 500 nM

Ask: IC50 lookup needed for C=C(F)C(=O)Nc1cc2c(Nc3cccc(Cl)c3F)ncnc2cc1C#CC1(C)CCN(C)C1 (centres unmarked) , thanks.
Result: 100 to 500 nM
